Examples of molecules with documented inhibition at 0.01 µM follow.
Target: human D2L receptor (Homo sapiens, UniProt P14416)
Sequence (P14416 whole entry): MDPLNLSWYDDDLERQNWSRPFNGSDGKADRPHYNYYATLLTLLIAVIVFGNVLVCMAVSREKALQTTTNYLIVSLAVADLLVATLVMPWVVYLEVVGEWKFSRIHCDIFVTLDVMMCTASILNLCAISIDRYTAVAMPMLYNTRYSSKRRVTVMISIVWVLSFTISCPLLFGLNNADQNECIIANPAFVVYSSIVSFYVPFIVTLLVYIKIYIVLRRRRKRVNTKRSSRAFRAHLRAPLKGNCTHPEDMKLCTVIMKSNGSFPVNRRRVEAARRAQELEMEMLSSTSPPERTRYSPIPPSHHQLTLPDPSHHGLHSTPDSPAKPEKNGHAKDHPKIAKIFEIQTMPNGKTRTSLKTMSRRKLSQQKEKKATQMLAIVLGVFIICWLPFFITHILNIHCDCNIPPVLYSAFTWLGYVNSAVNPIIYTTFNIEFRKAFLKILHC
Assay: Dopamine D2L receptor binding assay ([3H]-spiperone)
Conditions: 10 nM test drug; [3H]-spiperone 0.5 nM; human D2L receptor-expressing CHO cell membrane; read-out: BINDING INHIBITION RATE (%) D2L 10 nM
Entry rule: numbers only, all in %.

Worked examples follow.
test smiles: O=C(/C=C/c1ccc2c(c1)OCO2)N1CCC[C@@H](CCN2CCN(c3nsc4ccccc34)CC2)C1
result: 73
--
test smiles: O=C(/C=C/c1ccc2c(c1)OCO2)N1CCC[C@H](CCN2CCC(c3noc4cc(F)ccc34)CC2)C1
result: 75
--
test smiles: Cc1ccc2cc(C(=O)N3CCC[C@H]3CCN3CCN(c4noc5cc(F)ccc45)CC3)[nH]c2c1
result: 73
--
test smiles: Cc1cc2c3c(c1)cc(C(=O)N1CCC[C@H]1CCN1CCC(C(=O)c4ccc(F)cc4)CC1)n3CCC2=O
result: 58
--
test smiles: COc1ccc2cc(C(=O)N3CC[C@H]3CCN3CCC(c4c[nH]c5ccccc45)CC3)[nH]c2c1
result: 36
--
test smiles: Cc1ccc2cc(C(=O)N3C[C@H](F)C[C@H]3CCN3CCC(C(=O)c4ccc(F)cc4)CC3)[nH]c2c1
result: 89

Let's switch to this molecule now.
Recorded inhibition at 0.01 µM for "Cc1cccc2cc(C(=O)N3CCC[C@H]3CCN3CCC(C(=O)c4ccc(F)cc4)CC3)[nH]c12" with human D2L receptor (Homo sapiens, UniProt P14416), please? 69
